# measured.on: c-Met (cytoplasmic domain) (Homo sapiens)
# Construct: 10 ng/mL c-Met (cytoplasmic domain, Invitrogen Corporation #PV3143); purchased Invitrogen Corporation PV3143
# Sequence (P08581 956-1390 limits assumed): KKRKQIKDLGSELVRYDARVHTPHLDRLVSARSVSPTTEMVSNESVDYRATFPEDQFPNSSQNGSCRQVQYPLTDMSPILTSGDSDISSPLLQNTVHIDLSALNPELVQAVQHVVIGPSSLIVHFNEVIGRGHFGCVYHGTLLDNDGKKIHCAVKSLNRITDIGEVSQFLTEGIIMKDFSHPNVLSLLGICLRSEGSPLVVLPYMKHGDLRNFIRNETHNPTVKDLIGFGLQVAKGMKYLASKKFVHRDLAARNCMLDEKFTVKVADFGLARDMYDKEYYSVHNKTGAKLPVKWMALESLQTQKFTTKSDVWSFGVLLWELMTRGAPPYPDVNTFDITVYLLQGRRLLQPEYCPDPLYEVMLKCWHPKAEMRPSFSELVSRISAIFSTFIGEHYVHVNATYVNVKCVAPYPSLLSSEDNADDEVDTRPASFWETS
# assay.remarks: c-Met Kinase Assay (same methods as for ALK, with modifications)
# Assay type: biochemical
# stated.conditions: 1 μM ATP (Km level); read-out: cMet Activity (c-Met Kinase Inhibition, IC50)
# Protocol: Briefly, each 96-well plate was coated with 100 μL/well of 10 μg/mL substrate (phospholipase C-γ) in Tris-buffered saline (TBS). […] The reaction was initiated by adding enzyme (30 ng/ml ALK) and was allowed to proceed at 37° C. for 15 minutes. Detection of the phosphorylated product was performed by adding 100 μl/well of Eu-N1 labeled PT66 antibody (Perkin Elmer # AD0041). Data analysis was performed using ActivityBase (IDBS, Guilford, UK). […]
IC50 by entry:

compound	measured.on	measurement.kind	recorded.value
COCCN1CCc2ccc(Nc3ncc(Cl)c(Nc4ccc(OC)c5c4C(=O)N(C)C5)n3)cc2CC1	c-Met (cytoplasmic domain) (Homo sapiens)	IC50	0.1 to 1 µM
COc1cc2c(cc1Nc1ncc(Cl)c(Nc3ccccc3S(=O)(=O)N3CC[C@@H](N(C)C)C3)n1)CCN(CC(=O)N(C)C)CC2	c-Met (cytoplasmic domain) (Homo sapiens)	IC50	> 10 µM
COc1ccc(Nc2nc(Nc3ccc4c(c3)C(C)(C)CCC(=O)N4C)ncc2Cl)c(-n2cccn2)c1	c-Met (cytoplasmic domain) (Homo sapiens)	IC50	0.1 to 1 µM
COc1c(Nc2ncc(Cl)c(Nc3ccccc3S(=O)(=O)N3CCCC3)n2)ccc2c1CCCC(NCCO)C2 (stereo not shown)	c-Met (cytoplasmic domain) (Homo sapiens)	IC50	> 10 µM
COCCN1CCc2ccc(Nc3ncc(Cl)c(Nc4ccccc4-c4cccc(C)n4)n3)cc2CC1	c-Met (cytoplasmic domain) (Homo sapiens)	IC50	0.1 to 1 µM
COc1cc2c(cc1Nc1ncc(Cl)c(Nc3ccccc3S(=O)(=O)N3CCOCC3)n1)CCN(CC(=O)N(C)C)CC2	c-Met (cytoplasmic domain) (Homo sapiens)	IC50	> 10 µM

As a next step, examine the compound that follows.
The compound identified as `CS(=O)(=O)Nc1ccccc1Nc1nc(Nc2ccc3c(c2)CNCCS3(=O)=O)ncc1Cl` registered its IC50 at 1 to 10 µM
